assayRemarks: in vivo
studyConditions: male, Sprague-Dawley, rat, plasma, iv, 5 mg/kg, Individual plasma concentration, IV 5 mg/kg, 120 min, individual rats
readout: concentration at 120 min (ng/mL)
Numbers only here, please. The scale is ng/mL.

Task: Give its concentration at 120 min value. Item: C[C@@H](Cc1cccc2ccccc12)NC[C@H](O)c1cc(O)cc(O)c1.O=C(O)/C=C/C(=O)O [(R,S)-5, fumarate]
Output: 250

---

assayRemarks: in vivo
studyConditions: male, Sprague-Dawley, rat, plasma, iv, 5 mg/kg, Individual plasma concentration, IV 5 mg/kg, 360 min, individual rats
readout: concentration at 360 min (ng/mL)
Could you give me the number in ng/mL? Just the number is fine.

Task: Looking for the measured concentration at 360 min of C[C@@H](Cc1cccc2ccccc12)NC[C@H](O)c1cc(O)cc(O)c1.O=C(O)/C=C/C(=O)O [(R,S)-5, fumarate] , can you help?
Output: 80

---

assayRemarks: in vivo
studyConditions: male, Sprague-Dawley, rat, plasma, iv, 5 mg/kg, Plasma concentration, Average, IV 5 mg/kg, 300 min
readout: concentration at 300 min (ng/mL)
Quick note: give the figure in ng/mL, leave out the unit.

Task: Please look up its concentration at 300 min: C[C@@H](Cc1cccc2ccccc12)NC[C@H](O)c1cc(O)cc(O)c1.O=C(O)/C=C/C(=O)O [(R,S)-5, fumarate]
Output: 110

---

assayRemarks: in vivo
studyConditions: male, Sprague-Dawley, rat, plasma, iv, 5 mg/kg, Individual plasma concentration, IV 5 mg/kg, 300 min, individual rats
Protocol: Dose calculations (mg/kg) were based on the individual body weight measured on the day of treatment. Study duration for pharmacokinetic studies was 6 hours. […] Urine was collected for 0-6 hours and 6 to 24 hours from 3 rats in each treatment group. In the two-compartment model, the drug distributes into two compartments, the central compartment and the tissue, or peripheral compartment. The central compartment represents the blood, extracellular fluid, and highly perfused tissues. […]
readout: concentration at 300 min (ng/mL)
Unit ng/mL implied. Number only.

Task: Fill blank: measured concentration at 300 min of the compound C[C@@H](Cc1cccc2ccccc12)NC[C@H](O)c1cc(O)cc(O)c1.O=C(O)/C=C/C(=O)O [(R,S)-5, fumarate] is ____.
Output: 100

---

assayRemarks: in vivo
studyConditions: male, Sprague-Dawley, rat, plasma, iv, 5 mg/kg, Individual plasma concentration, IV 5 mg/kg, 240 min, individual rats
readout: concentration at 240 min (ng/mL)
Respond numerically; units are ng/mL and should not be typed.

Task: # concentration at 240 min lookup, item C[C@@H](Cc1cccc2ccccc12)NC[C@H](O)c1cc(O)cc(O)c1.O=C(O)/C=C/C(=O)O [(R,S)-5, fumarate]
Output: 110

---

assayRemarks: in vivo
studyConditions: male, Sprague-Dawley, rat, plasma, iv, 5 mg/kg, Individual plasma concentration, IV 5 mg/kg, 60 min, individual rats
readout: concentration at 60 min (ng/mL)
Write it as a number; the unit ng/mL goes unstated.

Task: Requested field: concentration at 60 min. Item: C[C@@H](Cc1cccc2ccccc12)NC[C@H](O)c1cc(O)cc(O)c1.O=C(O)/C=C/C(=O)O [(R,S)-5, fumarate]
Output: 360

---

assayRemarks: in vivo
studyConditions: male, Sprague-Dawley, rat, plasma, iv, 5 mg/kg, Plasma concentration, Average, IV 5 mg/kg, 30 min
Experimental: Dose calculations (mg/kg) were based on the individual body weight measured on the day of treatment. Study duration for pharmacokinetic studies was 6 hours. […] Urine was collected for 0-6 hours and 6 to 24 hours from 3 rats in each treatment group. In the two-compartment model, the drug distributes into two compartments, the central compartment and the tissue, or peripheral compartment. The central compartment represents the blood, extracellular fluid, and highly perfused tissues. […]
readout: concentration at 30 min (ng/mL)
Express the result in ng/mL but write the number alone.

Task: Look up concentration at 30 min: C[C@@H](Cc1cccc2ccccc12)NC[C@H](O)c1cc(O)cc(O)c1.O=C(O)/C=C/C(=O)O [(R,S)-5, fumarate]
Output: 430

Values compiled from patent US9492405B2.
